System Name: Aryl hydrocarbon receptor (Homo sapiens) (UniProt P35869)
Sequence (P35869 whole entry, looked up): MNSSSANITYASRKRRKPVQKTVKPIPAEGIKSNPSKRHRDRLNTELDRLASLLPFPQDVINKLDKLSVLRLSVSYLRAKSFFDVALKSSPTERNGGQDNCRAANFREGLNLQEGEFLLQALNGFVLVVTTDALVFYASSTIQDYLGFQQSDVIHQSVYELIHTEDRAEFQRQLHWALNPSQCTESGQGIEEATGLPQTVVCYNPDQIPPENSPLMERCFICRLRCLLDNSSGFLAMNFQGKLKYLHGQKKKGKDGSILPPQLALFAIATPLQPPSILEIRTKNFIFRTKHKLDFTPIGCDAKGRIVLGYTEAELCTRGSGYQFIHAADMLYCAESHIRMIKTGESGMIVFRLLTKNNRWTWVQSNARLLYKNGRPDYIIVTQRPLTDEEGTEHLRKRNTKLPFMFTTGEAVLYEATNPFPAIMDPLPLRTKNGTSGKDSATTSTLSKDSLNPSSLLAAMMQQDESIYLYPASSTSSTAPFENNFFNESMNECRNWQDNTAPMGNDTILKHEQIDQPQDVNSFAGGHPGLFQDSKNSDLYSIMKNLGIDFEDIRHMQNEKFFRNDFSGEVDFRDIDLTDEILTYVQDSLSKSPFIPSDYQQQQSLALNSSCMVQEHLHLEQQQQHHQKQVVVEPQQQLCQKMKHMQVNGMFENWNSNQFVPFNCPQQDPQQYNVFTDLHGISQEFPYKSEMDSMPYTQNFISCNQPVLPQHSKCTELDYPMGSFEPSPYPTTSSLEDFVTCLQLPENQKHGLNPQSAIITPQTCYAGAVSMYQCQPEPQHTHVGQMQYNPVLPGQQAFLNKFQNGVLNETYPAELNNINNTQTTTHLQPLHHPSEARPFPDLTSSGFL
Test Protocol: AHR activators, primary screen, cell-based, luminescence, luciferase reporter, human (AID 2796);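 note: 0% = vehicle wells and 100% = reference agonist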
Test Context: AHR-responsive luciferase reporter cells, at 5 µM, stronger effect = higher value
In all, about 320,000 compounds went through this assay and about 8,000 (2.5%) were called active. For the sample, actives were picked, then their nearest neighbours and some compounds at random.
Endpoint Name: activation (%)
Report the value in % with no unit label.

Below, each entry is followed by its recorded activation result.
CC(C(=O)N=Nc1c(O)n(C)c2ccc(Br)cc12)n1cnc2ccccc2c1=O (configuration not stated) | 80
COc1cc2[nH]c(=S)n(Cc3ccc(C)o3)c(=O)c2cc1OC | 73.8
CC(=O)NCCc1nc2cc(NC(=O)c3ccccc3)ccc2n1C | 5.94
C=CCn1c(=NC(=O)c2ccc(S(=O)(=O)N3CCCC3)cc2)sc2cc(NC(C)=O)ccc21 | 1.47
Cn1ncc(Br)c1C(=O)NCc1cccs1 | -1.33

[in] Given the molecule Nc1ncc(CN2CCCC(C(=O)Nc3ccc(-c4ccco4)cc3)C2)cn1 (configuration not stated) , what is its reported activation?
[out] 5.9

[in] Given the molecule "Cn1ncc(Br)c1C(=O)NC1CCCC1" , what is its reported activation?
[out] -3.04

---

System Name: Aryl hydrocarbon receptor (Homo sapiens)
Test Protocol: AHR activators, primary screen, cell-based, luminescence, luciferase reporter, human (AID 2796);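 note: 0% = vehicle wells and 100% = reference agonist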
Test Context: AHR-responsive luciferase reporter cells, at 5 µM, stronger effect = higher value
Among all 320,000 compounds or so, about 8,000 (2.5%) were called active. What follows is part of a selection rich in actives, with near analogues and random picks from the rest.
Form field: activation (one value per entry).
Report the value in % with no unit label.

Below, each entry is followed by its recorded activation result.
Cc1ccccc1CN1CCC(C(=O)Nc2ccc(Oc3cccnc3)cc2)CC1 | 1.47
CC(C)CC(=O)NC(=S)Nc1ccc(F)cc1F | -1.68
Cc1ccc(C(=O)OC2=CC(=O)CC(C)(C)C2)cc1 | 3.37

[in] Given the compound "O=C(Cn1nnc(N2CCCCC2)n1)c1ccc(Cl)c(Cl)c1" , what is its reported activation?
[out] -3.18

[in] Given the compound "COc1ccc2cc(C(=O)O)n(CC(=O)c3ccccc3)c2c1" , what is its reported activation?
[out] 18.9

[in] Given the compound "CC(C)CNC(=O)C(=O)NCc1ccccc1" , what is its reported activation?
[out] -0.83

---

Form field: activation (one value per entry).
System Name: Aryl hydrocarbon receptor (Homo sapiens)
Test Protocol: AHR activators, primary screen, cell-based, luminescence, luciferase reporter, human (AID 2796);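 note: 0% = vehicle wells and 100% = reference agonist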
Test Context: AHR-responsive luciferase reporter cells, at 5 µM, stronger effect = higher value
The whole screen tested about 320,000 compounds, of which about 8,000 (2.5%) were called active. The list comes from a sample in which actives are over-represented; it also holds close analogues and randomly drawn compounds.
Report the value in % with no unit label.

Below, each entry is followed by its recorded activation result.
Cc1ccc(N(C(=O)c2sc(C)nc2C)C(C(=O)NC(C)(C)C)c2ccncc2)cc1 (centres undefined) | -0.51
O=C(Cc1ccc(F)cc1)N/N=C/c1ccc2c(c1)OCO2 | 42
CCOC(=O)C1=C(COC(=O)[C@H](C)NS(=O)(=O)c2ccccc2F)NC(=O)NC1C (some centres undefined) | -0.94
O=C(COc1ccccc1)Nc1cc2c3c(c1)CC(=O)N3CCC2 | 8.04
Cc1noc(C)c1C(=O)Nc1ccccn1 | 4.67

[in] Given the compound "Brc1ccc(-c2csc(N/N=C/c3cccnc3)n2)cc1" , what is its reported activation?
[out] -4.57

[in] Given the compound "c1csc(CN2CCN(Cc3cccs3)C2c2cccs2)c1" , what is its reported activation?
[out] -2.12

[in] Given the compound "COCCN(CCOC)S(=O)(=O)c1ccc(C(=O)Nc2nc3c(s2)CCc2ccccc2-3)cc1" , what is its reported activation?
[out] 11.6

[in] Given the compound "O=C(CCl)Nc1cccc(CP(=O)(c2ccccc2)c2ccccc2)c1" , what is its reported activation?
[out] -0.56

[in] Given the compound "O=C(NC(=S)Nc1ccc(Br)cc1F)C1CCCCC1" , what is its reported activation?
[out] -1.21

[in] Given the compound "NS(=O)(=O)c1cccc(NC(=O)CN2CCCc3ccccc32)c1" , what is its reported activation?
[out] 3.96

[in] Given the compound "COc1cccc(-n2c(=S)[nH]c3c(oc4ccccc43)c2=O)c1" , what is its reported activation?
[out] 64.8

The origin of these recorded values is PubChem BioAssay AID2796.
